Reported values of EC50 for individual entries
Molecular target: human TfR ECD (human)
Sequence (chain, as listed by the source): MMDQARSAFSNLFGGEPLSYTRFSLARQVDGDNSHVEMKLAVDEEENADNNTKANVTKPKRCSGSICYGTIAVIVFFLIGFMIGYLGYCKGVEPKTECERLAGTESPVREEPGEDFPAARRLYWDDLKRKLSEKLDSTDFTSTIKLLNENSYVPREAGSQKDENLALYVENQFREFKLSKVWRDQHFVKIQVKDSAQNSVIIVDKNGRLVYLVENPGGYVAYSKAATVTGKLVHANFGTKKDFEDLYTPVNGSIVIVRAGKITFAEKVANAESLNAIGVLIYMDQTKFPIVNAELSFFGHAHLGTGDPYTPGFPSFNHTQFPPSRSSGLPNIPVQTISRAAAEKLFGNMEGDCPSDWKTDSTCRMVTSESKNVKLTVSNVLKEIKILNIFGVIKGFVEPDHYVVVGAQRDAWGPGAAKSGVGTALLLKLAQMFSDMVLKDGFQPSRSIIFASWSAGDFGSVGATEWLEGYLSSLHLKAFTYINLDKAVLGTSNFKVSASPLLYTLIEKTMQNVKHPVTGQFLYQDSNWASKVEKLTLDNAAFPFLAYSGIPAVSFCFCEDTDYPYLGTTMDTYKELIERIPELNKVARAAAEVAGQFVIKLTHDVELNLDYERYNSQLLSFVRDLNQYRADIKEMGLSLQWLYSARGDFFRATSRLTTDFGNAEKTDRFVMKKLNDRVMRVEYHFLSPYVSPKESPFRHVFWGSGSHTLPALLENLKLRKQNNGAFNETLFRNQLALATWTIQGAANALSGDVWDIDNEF
Test: ELISA
Please reply with the bare figure in ng/mL and do not write the unit itself.

binder	parameter_measured	measured_result
hu15G11.v5 HC M34A (antibody, V domains shown) VH: EVQLVQSGAEVKKPGASVKVSCKASGYTFTSYWAHWVRQAPGQRLEWIGEINPTNGRTNYIEKFKSRATLTVDKSASTAYMELSSLRSEDTAVYYCARGTRAYHYWGQGTMVTVSS VL: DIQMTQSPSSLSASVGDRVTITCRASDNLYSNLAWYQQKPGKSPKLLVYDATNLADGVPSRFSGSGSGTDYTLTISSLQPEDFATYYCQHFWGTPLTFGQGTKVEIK	EC50	0.4
hu15G11.v5 LC D27A (antibody, V domains shown) VH: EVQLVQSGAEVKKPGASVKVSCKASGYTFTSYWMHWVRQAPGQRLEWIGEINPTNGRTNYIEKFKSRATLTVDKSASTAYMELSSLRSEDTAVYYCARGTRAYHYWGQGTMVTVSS VL: DIQMTQSPSSLSASVGDRVTITCRASANLYSNLAWYQQKPGKSPKLLVYDATNLADGVPSRFSGSGSGTDYTLTISSLQPEDFATYYCQHFWGTPLTFGQGTKVEIK	EC50	0.2

**Q:** Which EC50 is reported for this binder? hu15G11.v5 LC D50A (antibody, V domains shown) VH: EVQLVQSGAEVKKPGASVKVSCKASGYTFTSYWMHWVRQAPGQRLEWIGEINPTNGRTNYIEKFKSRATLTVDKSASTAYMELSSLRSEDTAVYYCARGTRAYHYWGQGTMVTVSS VL: DIQMTQSPSSLSASVGDRVTITCRASDNLYSNLAWYQQKPGKSPKLLVYAATNLADGVPSRFSGSGSGTDYTLTISSLQPEDFATYYCQHFWGTPLTFGQGTKVEIK
**A:** 0.2
